This collection of values is drawn from patent US20250136694A1.

# reported EC50; entries follow
- STUDY TARGET: T1, human B7-H4 on the cell surface (human, UniProt Q7Z7D3 25-282)
- T1 construct: whole, on cells; also called hu B7-H4; CHO-K1/huB7-H4
- T1 sequence (looked up): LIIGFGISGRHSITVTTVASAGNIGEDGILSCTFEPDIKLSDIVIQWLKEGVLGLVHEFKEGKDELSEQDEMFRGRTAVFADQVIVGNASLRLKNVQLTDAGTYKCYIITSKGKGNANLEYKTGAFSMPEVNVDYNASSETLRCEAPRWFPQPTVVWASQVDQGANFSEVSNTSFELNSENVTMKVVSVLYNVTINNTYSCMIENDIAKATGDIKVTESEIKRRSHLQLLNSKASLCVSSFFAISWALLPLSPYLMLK
- EXPERIMENT SUMMARY: FACS, CHO-K1/hu B7-H4 cells
Number in nM, nothing else.

BINDER	EC50 / nM
PR007200 (antibody, IgG1, V domains shown, also called charge variant of PR006004 (V46E, G55S, R56S)) VH: EVQLVESGGGLVQPGGSLRLSCAASGFAFSNYWMHWARQVPGKGREWISRISGDSSSTSYADSVKGRFTISRDNAKNMVYLQMNNLRAEDTAVYYCARDRFGDDYYYGMNVWGQGTTVTVSS	5.39

Query: Consider the binder shown here: PR007201 (antibody, IgG1, V domains shown, also called charge variant of PR006004 (V46E, G55S, R56S, A61E)) VH: EVQLVESGGGLVQPGGSLRLSCAASGFAFSNYWMHWARQVPGKGREWISRISGDSSSTSYEDSVKGRFTISRDNAKNMVYLQMNNLRAEDTAVYYCARDRFGDDYYYGMNVWGQGTTVTVSS What is its recorded EC50?
Reply: 5.5

Query: Consider the binder shown here: PR007196 (antibody, IgG1, V domains shown, also called charge variant of PR006004 (V46E, G55S, R56E)) VH: EVQLVESGGGLVQPGGSLRLSCAASGFAFSNYWMHWARQVPGKGREWISRISGDSESTSYADSVKGRFTISRDNAKNMVYLQMNNLRAEDTAVYYCARDRFGDDYYYGMNVWGQGTTVTVSS What is its recorded EC50?
Reply: 3.72

Query: Consider the binder shown here: PR006004 (antibody, V domains shown, also called R7004M1A2; anti-human B7-H4 HCAb monoclonal antibody) VH: EVQLVESGGGLVQPGGSLRLSCAASGFAFSNYWMHWARQVPGKGRVWISRISGDGRSTSYADSVKGRFTISRDNAKNMVYLQMNNLRAEDTAVYYCARDRFGDDYYYGMNVWGQGTTVTVSS What is its recorded EC50?
Reply: 2.75
